Provenance of the data: patent US5208223A

molecular target: porcine pancreatic PLA2 (Sus scrofa); construct: purchased Sigma; assay: MPLA2 assay: in vitro porcine pancreatic phospholipase A2, mixed micelle design, substrate 2 nM; type: biochemical; conditions: dose 25 μ/ml, subs. con. 2, read-out: % Inh. Avg.
Sequence (P00592 23-146): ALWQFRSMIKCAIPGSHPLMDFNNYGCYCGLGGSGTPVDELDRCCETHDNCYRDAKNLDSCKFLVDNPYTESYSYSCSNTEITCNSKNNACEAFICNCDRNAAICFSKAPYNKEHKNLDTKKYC
ASSAY ENDPOINT: inhibition at 25 µg/mL (%)
// return numeric value only (unit: %, not printed)

CCCCCCCCCCCCCCCC[S+]([O-])CCCOP(=O)([O-])OCC[N+](C)(C)C (centres unmarked): 71
CCCCCCCCCCCCCCCCOCC(COP(=O)([O-])OCC[N+](C)(C)C)CS(=O)(=O)CCCCCCCCCCCCCCCC (centres unmarked): 72
CCCCCCCCCCCCCCCCOCC(CC=NO)COP(=O)([O-])OCC[N+](C)(C)C (centres unmarked): 55
CCCCCCCCCCCCCCCCSCCCOP(=O)([O-])OCC[N+](C)(C)C: 80

Then there is this compound:
q: Consider the compound CCCCCCCCCCCCCCCCOCC(COP(=O)([O-])OCC[N+](C)(C)C)CB(O)O (centres unmarked) . State its measured inhibition at 25 µg/mL.
a: 44
